# Tgt: T1, recombinant human PD-L1 (amino acids 19-239 of NP_054862.1) expressed with a C-terminal mouse IgG2a Fc tag (human)
# T1 construct: called dimeric; also called hPD-L1-mFc
# Test Method Notes: BLI (Octet Red96): 100 nM hPD-L1-mFc + 500 nM mAb on captured hPD-1-hFc, 25C

Binder	% Blocking
H2aM8314N (antibody, V domains shown, human variable regions, mouse IgG2 Fc (H2aM prefix); also called H2M8314N) VH: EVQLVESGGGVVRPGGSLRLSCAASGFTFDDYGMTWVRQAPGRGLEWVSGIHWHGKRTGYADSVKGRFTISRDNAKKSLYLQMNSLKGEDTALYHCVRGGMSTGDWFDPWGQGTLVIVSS VL: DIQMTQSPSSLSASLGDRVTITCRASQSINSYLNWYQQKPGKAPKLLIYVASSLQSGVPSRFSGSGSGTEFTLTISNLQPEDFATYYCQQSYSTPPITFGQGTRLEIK	94%
